Target: human DGAT2 (Homo sapiens, UniProt Q96PD7)
Construct: FLAG (DYKDDDDK); made in house; host or cells: Sf-21 insect cells (BacPAK baculovirus system); membrane fraction used
Sequence (Q96PD7 whole entry): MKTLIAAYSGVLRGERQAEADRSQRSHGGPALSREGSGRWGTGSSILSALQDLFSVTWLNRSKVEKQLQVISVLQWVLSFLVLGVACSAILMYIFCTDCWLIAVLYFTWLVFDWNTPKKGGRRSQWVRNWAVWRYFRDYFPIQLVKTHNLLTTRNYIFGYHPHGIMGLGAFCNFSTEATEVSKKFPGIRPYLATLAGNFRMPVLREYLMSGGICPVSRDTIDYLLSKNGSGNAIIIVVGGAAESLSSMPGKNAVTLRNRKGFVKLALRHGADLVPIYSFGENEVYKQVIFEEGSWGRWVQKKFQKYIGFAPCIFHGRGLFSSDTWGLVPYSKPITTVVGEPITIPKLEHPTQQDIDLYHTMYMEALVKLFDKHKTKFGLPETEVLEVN
Experiment: DGAT2 enzyme activity inhibition, Phospholipid FlashPlate SPA
Format: biochemical
Conditions: recombinant human DGAT2 membrane protein from Sf-21 cells; inhibition of [14C]-TG production; 37° C.
recorded.endpoint: IC50 (nM)

[
  {
    "molecule": "CCOc1ccccc1O[C@@H]1CCCN(c2cncc(Nc3nccc(-c4cccc(CC(C)(C)C(=O)O)c4)n3)n2)C1",
    "recorded.endpoint": "IC50",
    "observed.measurement": 390
  }
]

A. CCOc1ccccc1O[C@@H]1CCCN(c2cncc(Nc3cccc(N4CCCC(C(=O)O)C4)n3)n2)C1 (stereo partly shown)
B. CCOc1ccccc1O[C@@H]1CCCN(c2cncc(Nc3nc4ccccc4o3)n2)C1
stdin: Input pair: A , B . Output: entry with lower IC50. I would appreciate it if you answered with the label of your choice.
stdout: B
